# Tested on: EPHB3;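 note: KINOMEscan kinase panel screen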
# CONDITION_PARAMETERS: concentration: 1 μM, replicates: in singlicate; n = 1
In plain terms, low %Inh, meaning strictly below 9%, gives t, and everything else gives f.

Here are 5 molecules together with their reported answers.
- CCC(=O)c1c(-c2ccccc2)c2cc(Cl)ccc2c(=O)n1Cc1ccc(C(=O)O)cc1: t
- Nc1ncnc2c1ncn2-c1cccc2ccccc12: t
- O=c1cc(N2CCOCC2)nc2n(Cc3ccc(F)c(Cl)c3)ccn12: t
- Nc1ncnc2c1ncn2-c1ccc(Cl)cc1: t
- COC(=O)c1c(-c2ccccc2)c2cc(C)ccc2c(=O)n1Cc1ccccc1: f

## Input hey, is %Inh for Cl.c1ccc(Cn2cnc3cc(Nc4ncnc5ccccc45)ccc32)cc1 lower than 9% or not?
## Output f

## Input Also check Cc1nn2c(=O)cc(N3CCOCC3)nc2n1Cc1cccc(Cl)c1Cl
## Output f

## Input Try this molecule next: Nc1ncnc2c1ncn2-c1cccc(F)c1
## Output t
